Reference source for all entries: paper PMC6004562

Would you kindly list AUC(0-inf) for each of these compounds?
# Protocol notes: pharmacokinetics in CD-1 mice
# Assay type: in vivo
# Measurement conditions: male, plasma; CD-1 mouse, iv 2 mg/kg
Report as a plain number; the unit ng·h/mL is understood.

AUC(0-inf) for CN(C)C(=O)N1CCN(C(=O)c2cnc3ccc(F)cc3c2N2CCC(C#N)(c3ccccc3)CC2)CC1 is 661

Sample CS(=O)(=O)N1CCN(C(=O)c2cnc3ccc(Cl)cc3c2-c2ccc(C3(C#N)CC3)cc2)CC1 ; AUC(0-inf) observed: 1130

Lab book: AUC(0-inf) of N#CC1(c2ccccc2)CCN(c2c(C(=O)N3CCN(C(=O)C4CC4)CC3)cnc3ccc(F)cc23)CC1 noted as 505

response.value for CS(=O)(=O)N1CCN(C(=O)c2cnc3ccc(Cl)cc3c2N2CCC(C#N)(c3ccccc3)CC2)CC1 (field: AUC(0-inf)) = 459

The value of AUC(0-inf) measured for the compound CN(C)C(=O)N1CCN(C(=O)c2cnc3ccc(F)cc3c2-c2ccc(C3(C#N)CC3)cc2)CC1 turned out to be 1410

----------
# Protocol notes: pharmacokinetics in CD-1 mice
# Format: in vivo
# Measurement conditions: male, plasma; CD-1 mouse, po 10 mg/kg vs iv 2 mg/kg
Property label: bioavailability (%)
The response must be a number in % with no trailing unit.

The molecule identified as N#CC1(c2ccccc2)CCN(c2c(C(=O)N3CCN(C(=O)C4CC4)CC3)cnc3ccc(F)cc23)CC1 [Compound 78] registered its bioavailability at 9

Memo: CN(C)C(=O)N1CCN(C(=O)c2cnc3ccc(F)cc3c2N2CCC(C#N)(c3ccccc3)CC2)CC1 [Compound 108] , reported bioavailability: 30

Kindly note the recorded bioavailability for CS(=O)(=O)N1CCN(C(=O)c2cnc3ccc(Cl)cc3c2N2CCC(C#N)(c3ccccc3)CC2)CC1 [Compound 109] , which is 31

Lab note: CN(C)C(=O)N1CCN(C(=O)c2cnc3ccc(F)cc3c2-c2ccc(C3(C#N)CC3)cc2)CC1 [Compound 118] gave bioavailability of 30

molecule CS(=O)(=O)N1CCN(C(=O)c2cnc3ccc(Cl)cc3c2-c2ccc(C3(C#N)CC3)cc2)CC1 [Compound 119] , bioavailability observed: 49

----------
# Protocol notes: pharmacokinetics in CD-1 mice
# Type: in vivo
# Measurement conditions: male, plasma; CD-1 mouse, po 10 mg/kg
Property label: Cmax (ng/mL)
Give the quantity in ng/mL, number only.

# Cmax of CN(C)C(=O)N1CCN(C(=O)c2cnc3ccc(F)cc3c2N2CCC(C#N)(c3ccccc3)CC2)CC1 = 1110

Recorded result, CN(C)C(=O)N1CCN(C(=O)c2cnc3ccc(F)cc3c2-c2ccc(C3(C#N)CC3)cc2)CC1 , Cmax: 1170

Lab note: measured Cmax of N#CC1(c2ccccc2)CCN(c2c(C(=O)N3CCN(C(=O)C4CC4)CC3)cnc3ccc(F)cc23)CC1 was 215

Query CS(=O)(=O)N1CCN(C(=O)c2cnc3ccc(Cl)cc3c2-c2ccc(C3(C#N)CC3)cc2)CC1 yields Cmax of 1470

// Cmax value for CS(=O)(=O)N1CCN(C(=O)c2cnc3ccc(Cl)cc3c2N2CCC(C#N)(c3ccccc3)CC2)CC1 : 471

----------
# Protocol notes: pharmacokinetics in CD-1 mice
# Format: in vivo
# Measurement conditions: male, plasma; CD-1 mouse, po 10 mg/kg
Field: log10 of AUC(0-inf). Provide a value for each of the compounds that follow.
Short version: log10 scale, AUC(0-inf), ng·h/mL.

So, CS(=O)(=O)N1CCN(C(=O)c2cnc3ccc(Cl)cc3c2-c2ccc(C3(C#N)CC3)cc2)CC1 ? Its log10 of AUC(0-inf) was 3.44

Short answer for CN(C)C(=O)N1CCN(C(=O)c2cnc3ccc(F)cc3c2N2CCC(C#N)(c3ccccc3)CC2)CC1 : log10 of AUC(0-inf) was 2.93

Record summary for CS(=O)(=O)N1CCN(C(=O)c2cnc3ccc(Cl)cc3c2N2CCC(C#N)(c3ccccc3)CC2)CC1 : reported log10 of AUC(0-inf) = 2.86

Please fill in: log10 of AUC(0-inf) reported for N#CC1(c2ccccc2)CCN(c2c(C(=O)N3CCN(C(=O)C4CC4)CC3)cnc3ccc(F)cc23)CC1 = 2.36

According to the records, this compound CN(C)C(=O)N1CCN(C(=O)c2cnc3ccc(F)cc3c2-c2ccc(C3(C#N)CC3)cc2)CC1 displays log10 of AUC(0-inf) of 3.33

----------
What Cmax was measured for each of the following?
# Protocol notes: pharmacokinetics in CD-1 mice
# Type: in vivo
# Measurement conditions: male, plasma; CD-1 mouse, iv 2 mg/kg, observed at t = 5 min
Number in ng/mL, nothing else.

Form field Cmax, entry CN(C)C(=O)N1CCN(C(=O)c2cnc3ccc(F)cc3c2N2CCC(C#N)(c3ccccc3)CC2)CC1 : 1800

The reported Cmax of the compound CN(C)C(=O)N1CCN(C(=O)c2cnc3ccc(F)cc3c2-c2ccc(C3(C#N)CC3)cc2)CC1 was 1960

Lab note: CS(=O)(=O)N1CCN(C(=O)c2cnc3ccc(Cl)cc3c2N2CCC(C#N)(c3ccccc3)CC2)CC1 gave Cmax of 1100

Field Cmax (entry N#CC1(c2ccccc2)CCN(c2c(C(=O)N3CCN(C(=O)C4CC4)CC3)cnc3ccc(F)cc23)CC1 ) reads 1500
